FYI, the data here is from patent US9580413B2.

- TARGET_OF_ASSAY: JAK2 tyrosine kinase (Homo sapiens, UniProt O60674)
- Sequence (O60674 whole entry): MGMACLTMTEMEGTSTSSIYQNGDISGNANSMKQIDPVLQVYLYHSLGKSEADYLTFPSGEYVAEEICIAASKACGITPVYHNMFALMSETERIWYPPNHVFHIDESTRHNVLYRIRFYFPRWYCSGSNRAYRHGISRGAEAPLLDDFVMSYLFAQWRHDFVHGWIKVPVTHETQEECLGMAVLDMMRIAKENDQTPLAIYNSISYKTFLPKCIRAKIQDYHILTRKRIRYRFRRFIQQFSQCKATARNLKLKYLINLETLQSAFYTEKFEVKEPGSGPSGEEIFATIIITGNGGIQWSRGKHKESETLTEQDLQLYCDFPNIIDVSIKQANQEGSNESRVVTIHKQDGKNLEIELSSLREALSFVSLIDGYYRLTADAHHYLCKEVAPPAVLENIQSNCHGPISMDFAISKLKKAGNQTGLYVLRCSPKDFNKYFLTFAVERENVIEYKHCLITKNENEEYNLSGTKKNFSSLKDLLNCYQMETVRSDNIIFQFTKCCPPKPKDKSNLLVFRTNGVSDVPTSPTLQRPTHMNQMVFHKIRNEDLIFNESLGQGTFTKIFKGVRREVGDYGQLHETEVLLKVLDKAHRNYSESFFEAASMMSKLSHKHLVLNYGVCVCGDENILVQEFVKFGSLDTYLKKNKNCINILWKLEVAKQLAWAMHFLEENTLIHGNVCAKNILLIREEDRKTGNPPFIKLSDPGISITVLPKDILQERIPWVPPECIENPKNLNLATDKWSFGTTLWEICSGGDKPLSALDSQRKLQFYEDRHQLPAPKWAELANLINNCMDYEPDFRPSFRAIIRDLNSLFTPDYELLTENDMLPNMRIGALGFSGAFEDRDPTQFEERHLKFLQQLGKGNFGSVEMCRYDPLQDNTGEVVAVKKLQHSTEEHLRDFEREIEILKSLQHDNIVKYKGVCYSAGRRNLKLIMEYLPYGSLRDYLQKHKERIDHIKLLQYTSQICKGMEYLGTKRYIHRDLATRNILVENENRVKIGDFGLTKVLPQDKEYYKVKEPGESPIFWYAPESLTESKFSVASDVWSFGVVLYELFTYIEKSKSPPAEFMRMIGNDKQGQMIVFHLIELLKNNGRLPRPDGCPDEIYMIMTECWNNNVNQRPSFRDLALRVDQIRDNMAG
Where a name gives a salt, the structure may show the parent alone.
Label TRUE when IC50 < 200 nM; otherwise FALSE.

Past entries and their recorded results:
INSERT INTO assay_data (molecule, target_of_assay, category) VALUES
  ('COc1c(C)nc(N2CCC[C@H]2c2ccc(C)cc2)nc1Nc1ncc(C#N)s1 [Example 9, maleate]', 'JAK2 tyrosine kinase (Homo sapiens, UniProt O60674)', 'FALSE'),
  ('COc1c(Nc2ncc(C#N)s2)nc(N2CCC[C@H]2c2ccc(C)cc2)nc1-c1cnn(CCO)c1', 'JAK2 tyrosine kinase (Homo sapiens, UniProt O60674)', 'TRUE'),
  ('CCOC(=O)c1cnc(Nc2cncc(N3CCCC3c3ccc(C)cc3)n2)s1 (centres unmarked)', 'JAK2 tyrosine kinase (Homo sapiens, UniProt O60674)', 'FALSE'),
  ('COc1c(Nc2ncc(C#N)s2)nc(N2CCC[C@H]2c2ccc(C)cc2)nc1C(=O)N[C@H]1CC[C@H](C(=O)O)CC1', 'JAK2 tyrosine kinase (Homo sapiens, UniProt O60674)', 'TRUE'),
  ('Cc1ccc([C@@H]2CCCN2c2cnc(C)c(Nc3ncc(C)s3)n2)cc1', 'JAK2 tyrosine kinase (Homo sapiens, UniProt O60674)', 'TRUE');

Exercise: Please indicate whether the reported IC50 of COc1ccc(C2CCCN2c2cncc(Nc3ncc(C#N)s3)n2)cc1 (centres unmarked) is strictly below 200 nM.
Key: FALSE

Exercise: Please indicate whether the reported IC50 of Cc1ccc([C@@H]2CCCN2c2cncc(Nc3ncc(C#N)s3)n2)cc1 [Example 1, hydrochloride] is strictly below 200 nM.
Key: TRUE

Exercise: Please indicate whether the reported IC50 of COC(=O)c1cc(Nc2ncc(C#N)s2)nc(N2CCCC2c2ccc(C)cc2)n1 (centres unmarked) is strictly below 200 nM.
Key: TRUE

====

- TARGET_OF_ASSAY: ROS tyrosine kinase (Homo sapiens)
- Construct: purchased Carna Biosciences, Inc
- Sequence (P08922 28-2347): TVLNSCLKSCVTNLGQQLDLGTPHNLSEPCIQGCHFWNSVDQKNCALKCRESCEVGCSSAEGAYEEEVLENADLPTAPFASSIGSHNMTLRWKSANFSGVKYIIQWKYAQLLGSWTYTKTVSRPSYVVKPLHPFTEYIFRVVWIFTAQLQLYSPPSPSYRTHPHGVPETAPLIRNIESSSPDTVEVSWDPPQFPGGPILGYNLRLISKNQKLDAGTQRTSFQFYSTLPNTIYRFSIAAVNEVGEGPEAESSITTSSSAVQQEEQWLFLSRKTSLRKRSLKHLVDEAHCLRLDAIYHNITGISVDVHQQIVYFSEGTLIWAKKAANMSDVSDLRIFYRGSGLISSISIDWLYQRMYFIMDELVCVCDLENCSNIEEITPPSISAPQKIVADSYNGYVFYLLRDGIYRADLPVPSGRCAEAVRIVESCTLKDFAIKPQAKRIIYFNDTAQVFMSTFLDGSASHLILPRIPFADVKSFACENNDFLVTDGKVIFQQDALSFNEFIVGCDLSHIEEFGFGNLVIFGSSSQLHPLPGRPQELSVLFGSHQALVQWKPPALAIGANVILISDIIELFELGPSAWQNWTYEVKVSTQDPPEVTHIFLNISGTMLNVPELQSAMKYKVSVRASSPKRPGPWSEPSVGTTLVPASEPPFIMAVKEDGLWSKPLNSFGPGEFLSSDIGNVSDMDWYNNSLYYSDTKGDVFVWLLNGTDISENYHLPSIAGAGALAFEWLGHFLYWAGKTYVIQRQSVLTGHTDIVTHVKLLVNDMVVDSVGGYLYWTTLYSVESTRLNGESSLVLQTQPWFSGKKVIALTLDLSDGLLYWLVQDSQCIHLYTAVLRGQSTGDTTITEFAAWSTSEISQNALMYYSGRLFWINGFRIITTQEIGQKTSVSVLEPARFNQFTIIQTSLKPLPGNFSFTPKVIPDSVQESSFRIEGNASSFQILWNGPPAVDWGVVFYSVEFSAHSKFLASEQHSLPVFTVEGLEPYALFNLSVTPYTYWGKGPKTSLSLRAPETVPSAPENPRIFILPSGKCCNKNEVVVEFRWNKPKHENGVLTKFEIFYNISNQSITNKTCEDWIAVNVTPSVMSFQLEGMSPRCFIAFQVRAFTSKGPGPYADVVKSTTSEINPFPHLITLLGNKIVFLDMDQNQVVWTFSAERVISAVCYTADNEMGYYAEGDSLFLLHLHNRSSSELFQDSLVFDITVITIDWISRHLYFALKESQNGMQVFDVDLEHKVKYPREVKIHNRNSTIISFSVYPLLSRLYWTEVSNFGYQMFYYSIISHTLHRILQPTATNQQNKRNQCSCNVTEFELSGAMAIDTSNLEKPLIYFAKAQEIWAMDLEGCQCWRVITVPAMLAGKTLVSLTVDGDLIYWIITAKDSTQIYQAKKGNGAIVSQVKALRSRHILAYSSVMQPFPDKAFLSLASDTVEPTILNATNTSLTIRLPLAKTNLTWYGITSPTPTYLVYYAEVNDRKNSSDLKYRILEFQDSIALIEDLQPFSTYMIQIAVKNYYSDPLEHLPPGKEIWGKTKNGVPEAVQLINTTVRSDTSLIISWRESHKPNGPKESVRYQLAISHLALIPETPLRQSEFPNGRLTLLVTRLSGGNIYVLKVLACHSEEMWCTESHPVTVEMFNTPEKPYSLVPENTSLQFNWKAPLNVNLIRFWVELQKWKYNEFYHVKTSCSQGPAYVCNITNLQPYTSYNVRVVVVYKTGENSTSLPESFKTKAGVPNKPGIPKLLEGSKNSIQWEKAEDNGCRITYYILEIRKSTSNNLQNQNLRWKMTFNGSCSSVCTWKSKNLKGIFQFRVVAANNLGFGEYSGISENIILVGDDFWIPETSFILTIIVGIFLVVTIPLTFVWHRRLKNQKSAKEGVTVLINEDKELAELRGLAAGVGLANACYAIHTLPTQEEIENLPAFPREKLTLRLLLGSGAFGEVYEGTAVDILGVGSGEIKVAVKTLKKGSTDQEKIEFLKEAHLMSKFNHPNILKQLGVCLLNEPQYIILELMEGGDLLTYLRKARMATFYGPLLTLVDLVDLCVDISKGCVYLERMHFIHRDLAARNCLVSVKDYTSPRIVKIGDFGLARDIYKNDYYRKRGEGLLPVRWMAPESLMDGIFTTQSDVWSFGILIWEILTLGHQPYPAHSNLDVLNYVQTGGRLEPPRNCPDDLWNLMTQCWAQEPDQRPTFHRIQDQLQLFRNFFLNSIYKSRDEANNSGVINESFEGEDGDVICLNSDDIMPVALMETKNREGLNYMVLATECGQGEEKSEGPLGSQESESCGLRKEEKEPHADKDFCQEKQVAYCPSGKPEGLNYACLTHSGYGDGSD
- ASSAY_PROTOCOL: ROS tyrosine kinase inhibitory activity test (ELISA)
- Type: biochemical, humans
- DETAILS: 25 μM ATP substrate solution, 30° C., one hour
Structures can show the parent of a compound that is named as a salt.
QUANTITY_MEASURED: log10 of IC50 (log10 of the value in nM)
The common logarithm of IC50 in nM is what is listed.

Exercise: Tell me log10 of IC50 of COc1c(C)nc(N2CCC[C@H]2c2ccc(C)cc2)nc1Nc1ncc(C#N)s1 [Example 9, maleate] when tested on ROS tyrosine kinase (Homo sapiens).
Key: -0.22

Exercise: Tell me log10 of IC50 of Cc1cc(-c2ncc(N3CCCC3c3ccc(F)cc3)nc2Nc2ncc(C#N)s2)ccn1 (stereo not shown) [Example 53] when tested on ROS tyrosine kinase (Homo sapiens).
Key: 1.83

Exercise: Tell me log10 of IC50 of COCCn1cc(-c2nc(N3CCC[C@H]3c3ccc(C)cc3)nc(Nc3ncc(C#N)s3)c2OC)cn1 [Example 58] when tested on ROS tyrosine kinase (Homo sapiens).
Key: 0.34

Exercise: Tell me log10 of IC50 of Cc1ccc(C2CCCN2c2ncc(C)c(Nc3ncc(C#N)s3)n2)cc1 (stereo not shown) [Example 2] when tested on ROS tyrosine kinase (Homo sapiens).
Key: 0.51

Exercise: Tell me log10 of IC50 of Cc1ccc(C2CCCN2c2nc(Nc3ncc(C#N)s3)c(C)c(-c3cnn(C)c3)n2)cc1 (stereo not shown) [Example 8] when tested on ROS tyrosine kinase (Homo sapiens).
Key: 0.59

====

- TARGET_OF_ASSAY: FIG-ROS/BaF3 cell (Homo sapiens, UniProt P08922)
- Construct: fused on or other part: Q9HD26 (Golgi-associated PDZ and coiled-coil motif-containing protein)
- ASSAY_PROTOCOL: Proliferation inhibitory activity test against FIG-ROS/BaF3 cell
- Format: cell-based
- DETAILS: 3 days incubation, cell counting kit; read-out: Proliferation inhibitory activity against FIG-ROS/BaF3 cell (IC50)
Label Yes when GI50 < 3 nM; otherwise No.

Past entries and their recorded results:
INSERT INTO measurements (molecule, category) VALUES
  ('COc1c(Nc2ncc(C#N)s2)nc(N2CCC[C@H]2c2ccc(C)cc2)nc1C(=O)N[C@H]1CC[C@H](O)CC1', 'Yes'),
  ('Cc1ccc(C2CCCN2c2cc(C(F)(F)F)cc(Nc3ncc(C#N)s3)n2)cc1 (centres unmarked)', 'No'),
  ('Cc1ccc(C2CCCN2c2nc(Nc3ncc(C#N)s3)cc(C(=O)O)n2)cc1 (centres unmarked)', 'No'),
  ('N#Cc1cnc(Nc2cncc(N3CCCC3c3ccc(Cl)cc3)n2)s1 (centres unmarked)', 'Yes'),
  ('Cc1ccc(C2CCCN2c2nc(Nc3ncc(C#N)s3)c(C)nc2C)cc1 (centres unmarked)', 'Yes'),
  ('COc1c(Nc2ncc(C#N)s2)nc(N2CCCC2c2ccc(C)cc2)nc1-c1ccc(C(N)=O)cc1 (centres unmarked)', 'Yes'),
  ('Cc1ccc(C2CCCN2c2nc(Nc3ncc(C#N)s3)cc(C(=O)N[C@H](C)CO)n2)cc1 (some centres unmarked)', 'No');

Let us examine a further case.
Exercise: Please indicate whether the reported GI50 of COc1c(Nc2ncc(C#N)s2)nc(N2CCCC2c2ccc(C)cc2)nc1-c1cnco1 (centres unmarked) is strictly below 3 nM.
Key: Yes

====

- TARGET_OF_ASSAY: FIG-ROS/BaF3 cell (Homo sapiens, UniProt P08922)
- Construct: fused on or other part: Q9HD26 (Golgi-associated PDZ and coiled-coil motif-containing protein)
- ASSAY_PROTOCOL: Proliferation inhibitory activity test against FIG-ROS/BaF3 cell
- Assay type: cell-based
- DETAILS: 3 days incubation, cell counting kit; read-out: Proliferation inhibitory activity against FIG-ROS/BaF3 cell (IC50)
Where a name gives a salt, the structure may show the parent alone.
QUANTITY_MEASURED: GI50 (nM)
Report the value in nM with no unit label.

Here is how some compounds turned out for GI50.
INSERT INTO measurements (compound, quantity_measured, units_of_measure, experimental_result) VALUES
  ('COCCNC(=O)c1nc(N2CCC[C@H]2c2ccc(C)cc2)nc(Nc2ncc(C#N)s2)c1OC [Example 64]', 'GI50', 'nM', 1.5),
  ('CCc1c(COC)nc(N2CCC[C@H]2c2ccc(C)cc2)nc1Nc1ncc(C#N)s1 [Example 57]', 'GI50', 'nM', 1.8),
  ('Cc1ccc([C@@H]2CCCN2c2cc(C(=O)N[C@H]3CC[C@H](O)CC3)c(C)c(Nc3ncc(C#N)s3)n2)cc1 [Example 68]', 'GI50', 'nM', 0.71);

Field: next compound
Exercise: Return value of GI50 for input Cc1ccc([C@@H]2CCCN2c2cncc(Nc3ncc(C#N)s3)n2)cc1 [Example 1, hydrochloride] , no commentary.
Key: 2.2

====

- TARGET_OF_ASSAY: FIG-ROS/BaF3 cell (Homo sapiens, UniProt P08922)
- Construct: fused on or other part: Q9HD26 (Golgi-associated PDZ and coiled-coil motif-containing protein)
- ASSAY_PROTOCOL: Proliferation inhibitory activity test against FIG-ROS/BaF3 cell
- Type: cell-based
- DETAILS: 3 days incubation, cell counting kit; read-out: Proliferation inhibitory activity against FIG-ROS/BaF3 cell (IC50)
Readings of GI50 for the listed compounds
Report the value in nM with no unit label.

Here is how some compounds turned out for GI50.
INSERT INTO results (compound, experimental_result) VALUES
  ('COC(=O)c1cc(Nc2ncc(C#N)s2)nc(N2CCCC2c2ccc(C)cc2)n1 (stereo not shown)', 23),
  ('COc1c(Nc2ncc(C#N)s2)nc(N2CCC[C@H]2c2ccc(C)cc2)nc1C(=O)N[C@H]1CC[C@H](C(=O)O)CC1', 3.5),
  ('COc1c(Nc2ncc(C#N)s2)nc(N2CCCC2c2ccc(C)cc2)nc1-c1ccc(S(C)(=O)=O)cc1 (stereo not shown)', 3.5);

Exercise: Return value of GI50 for input COc1c(Nc2ncc(C#N)s2)nc(N2CCC[C@H]2c2ccc(C)cc2)nc1-c1cnn(CCO)c1 , no commentary.
Key: 1.3

Exercise: Return value of GI50 for input N#Cc1cnc(Nc2nc(N3CCCC3c3ccc(F)cc3)cnc2-c2ccncc2)s1 (stereo not shown) , no commentary.
Key: 10

Exercise: Return value of GI50 for input CC(=O)N1CCc2nc(N3CCC[C@H]3c3ccc(C)cc3)nc(Nc3ncc(C#N)s3)c2C1 , no commentary.
Key: 2

Exercise: Return value of GI50 for input Cc1ccc([C@@H]2CCCN2c2cnc(C3CC3)c(Nc3ncc(C)s3)n2)cc1 , no commentary.
Key: 12

====

Readings of pIC50 for the listed molecules
- TARGET_OF_ASSAY: JAK2 tyrosine kinase (Homo sapiens)
pIC50: −log10 of the molar value.

Here is how some molecules turned out for pIC50.
INSERT INTO assay_data (molecule, experimental_result) VALUES
  ('Cc1ccc(C2CCCN2c2nc(C)c(C)c(Nc3ncc(C#N)s3)n2)cc1 (stereo not drawn) [Example 52]', 6.77),
  ('COc1c(Nc2ncc(C#N)s2)nc(N2CCCC2c2ccc(C)cc2)nc1-c1cnco1 (stereo not drawn) [Example 11]', '< 6.00');

Exercise: Tell me pIC50 of Cc1ccc(C2CCCN2c2nc(C)c(Br)c(Nc3ncc(C#N)s3)n2)cc1 (stereo not drawn) [Example 17] when tested on JAK2 tyrosine kinase (Homo sapiens).
Key: < 6.00
